Species on record: Rattus norvegicus
protocolNotes: Open TG-GATES - Regimen: Daily Repeat
Assay type: toxicity, organism-based, Sprague-Dawley
Parameters: regimen Daily Repeat, gender Male, age 6 weeks
conditionParameters: in vivo, po, 1000 mg/kg, 72 h, tissue Blood, route gavage, dose level High, time 3 day
Each entry below carries its reported MCV.
Entry rule: numbers only, all in fL.

> print(dat)
                                 molecule  attributemeasured  experimentalresult
1  CC(S)C(=O)NCC(=O)O (centres undefined)                MCV                62.7

Data request: Assign MCV to the following record: O=C(O)c1ccccc1Nc1ccccc1
Data returned: 60.5

Data request: Assign MCV to the following record: CCCCNC(=O)NS(=O)(=O)c1ccc(C)cc1 [TOLBUTAMIDE]
Data returned: 64.2

Data request: Assign MCV to the following record: CC(=O)[C@@]1(O)CC[C@H]2[C@@H]3C=C(Cl)C4=CC(=O)CC[C@]4(C)[C@H]3CC[C@@]21C
Data returned: 61

###

Species: Rattus norvegicus
protocolNotes: Open TG-GATES - Regimen: Daily Repeat
Assay type: toxicity, organism-based, Sprague-Dawley
Design: regimen Daily Repeat, gender Male, age 6 weeks
conditionParameters: in vivo, po, 100 mg/kg, 72 h, tissue Blood, route gavage, dose level Low, time 3 day
Each entry below carries its reported PT.
// return the numeric value with its unit appended

> print(dat)
                                   compound  experimentalresult
1                   O=C(O)c1ccccc1Nc1ccccc1              14.2 s
2  CCCCNC(=O)NS(=O)(=O)c1ccc(C)cc1 [TOLBUTAMIDE]              13.2 s
3    CC(S)C(=O)NCC(=O)O (centres undefined)              15.6 s

Attention now turns to another entry.
Data request: Assign PT to the following record: CC(=O)[C@@]1(O)CC[C@H]2[C@@H]3C=C(Cl)C4=CC(=O)CC[C@]4(C)[C@H]3CC[C@@]21C
Data returned: 15.3 s

###

Each entry below carries its reported RBC.
Species on record: Rattus norvegicus
protocolNotes: Open TG-GATES - Regimen: Daily Repeat
Format: toxicity, organism-based, Sprague-Dawley
Parameters: regimen Daily Repeat, gender Male, age 6 weeks
conditionParameters: in vivo, po, 100 mg/kg, […], tissue Blood, route gavage, dose level Low, time 28 day
Entry rule: numbers only, all in x10_4/ul.

These recorded examples may help you get a feel for the data.
> print(dat)
                                   compound  attributemeasured  experimentalresult
1  CCCCNC(=O)NS(=O)(=O)c1ccc(C)cc1 [TOLBUTAMIDE]                RBC               831.6
2  CC(S)C(=O)NCC(=O)O (centres undefined) [TIOPRONIN]                RBC               775.4
3    O=C(O)c1ccccc1Nc1ccccc1 [FENAMIC ACID]                RBC               780.8

Attention now turns to another entry.
Data request: Assign RBC to the following record: CC(=O)[C@@]1(O)CC[C@H]2[C@@H]3C=C(Cl)C4=CC(=O)CC[C@]4(C)[C@H]3CC[C@@]21C [CHLORMADINONE]
Data returned: 809

# credit: ChEMBL document CHEMBL3885861
